All values here come from patent US20250257034A1.

We begin with a simple list: items and their reported CLint scaled at 2 μM.
# Assay text: Mouse liver microsomes stability
# Type: in vitro ADME
# Particulars: male; Mouse liver microsomes; read-out: Scaled-up CLint
Reply with just the number (in mL/min/kg).

These recorded examples may help you get a feel for the data.
CCN(CC)CCc1c[nH]c2ccc(SC)cc12    990
[2H]C([2H])([2H])N(CCc1c[nH]c2ccc(SC)cc12)C([2H])([2H])[2H]    918

Q: For the compound shown here, `CSc1ccc2[nH]cc(CCN(C)C(C)C)c2c1` , give the reported CLint scaled at 2 μM.
Ans: 606

---

# Assay text: Mouse liver microsomes stability
# Assay type: in vitro ADME
# Particulars: male, mouse, pooled liver microsomes, mouse liver microsomes, 2 μM compound, 0.5 mg/mL; read-out: CLint (μL/min/mg protein)
Assay readout: log10(microsomal CLint at 2 μM) (log10 of the value in µL/min/mg)
Annotation: log10 of microsomal CLint at 2 μM, µL/min/mg basis.

Answered cases to consult:
CN(C)CCc1c[nH]c2ccc(OCCOC(F)F)cc12    1.82
COc1ccc2[nH]cc(CCN3CC[C@H](OC(F)F)C3)c2c1 [(S) I-67]    1.84
COc1ccc2[nH]cc(CCN3CC[C@@H](OC)C3)c2c1 [(R) I-66]    1.15

Q: Look at this molecule and give its reported log10(microsomal CLint at 2 μM). `COc1ccc2[nH]cc(CCN(C)CCOC(F)F)c2c1`
Ans: 2.25

Q: Look up log10(microsomal CLint at 2 μM): `CN(CCOC(F)F)CCc1c[nH]c2ccccc12`
Ans: 2.24

Q: Recorded log10(microsomal CLint at 2 μM) of COc1ccc2[nH]cc(CCN3CC[C@@H](OC(F)F)C3)c2c1 [(R) I-67] , please.
Ans: 1.76

Q: Any idea what its log10(microsomal CLint at 2 μM) is? The molecule is `O=C(O)Cc1ccccc1Nc1c(Cl)cccc1Cl`
Ans: 1.51

---

# Assay text: Pharmacokinetic studies in rat (i.v.)
# Type: in vivo
# Particulars: male, Sprague-Dawley, rat, plasma, intravenous, rat i.v., 0.25 h, mean of 3 rats; dose 1.37 mg/kg (I-71, I-128), 1.33 mg/kg ((S) I-67); read-out: Plasma concentration, Mean ± SD
Each entry below carries its reported concentration at 0.25 h.
Give your result as the value with the unit written after it.

COc1ccc2[nH]cc(CCN(C)CCOC(F)F)c2c1    286 ng/mL

Q: Sample `CN(C)CCc1c[nH]c2ccc(OCCOC(F)F)cc12` — what was its concentration at 0.25 h?
Ans: 138 ng/mL

Q: Name the recorded concentration at 0.25 h for COc1ccc2[nH]cc(CCN3CC[C@H](OC(F)F)C3)c2c1 [(S) I-67] .
Ans: 436 ng/mL

---

# Subject of test: human 5-HT1A receptor (Homo sapiens)
# Sequence (P08908 1-422): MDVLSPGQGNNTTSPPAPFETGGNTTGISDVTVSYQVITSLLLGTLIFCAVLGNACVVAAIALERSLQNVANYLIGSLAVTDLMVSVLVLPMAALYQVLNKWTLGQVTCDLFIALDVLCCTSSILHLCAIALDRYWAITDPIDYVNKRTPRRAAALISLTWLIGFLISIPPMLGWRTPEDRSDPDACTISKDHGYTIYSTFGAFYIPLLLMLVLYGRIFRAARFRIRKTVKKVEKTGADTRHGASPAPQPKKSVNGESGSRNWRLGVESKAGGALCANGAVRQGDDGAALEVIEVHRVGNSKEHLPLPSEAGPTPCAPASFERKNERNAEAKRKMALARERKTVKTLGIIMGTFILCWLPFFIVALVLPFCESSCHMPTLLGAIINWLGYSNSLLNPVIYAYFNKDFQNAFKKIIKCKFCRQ
# Assay text: Human 5-HT1A functional FLIPR assay (agonist mode)
# Assay type: cell-based
# Design: expressed in transfected cells; host or cells: HTR1A&Gα15-CHO
# Particulars: FLIPR calcium, agonist mode, HTR1A&Gα15-CHO cells (Table 47); read-out: h5-HT1A, EC50
Assay readout: pEC50
In plain terms, pEC50 is the concentration in mol/L turned into minus its base-10 logarithm.

Q: Which value of pEC50 has been reported for COc1ccc2[nH]cc(CCN(C)CCOC(F)F)c2c1 [Compound I-71] in the records?
Ans: 5.73

---

# Assay text: Mouse liver microsomes stability
# Assay type: in vitro ADME
# Particulars: male, pooled liver microsomes; mouse liver microsomes, 2 μM compound, 0.5 mg/mL
Assay readout: half-life at 2 μM (min)
Provide the reading as a plain figure in min.

Example entries begin here.
COc1ccc2[nH]cc(CCN3CC[C@@H](OC(F)F)C3)c2c1 [(R) I-67]    24.1
CN(CCOC(F)F)CCc1c[nH]c2ccccc12 [Compound I-130]    8.03
COc1ccc2[nH]cc(CCN3CC[C@H](OC(F)F)C3)c2c1 [(S) I-67]    20
COc1ccc2[nH]cc(CCN(C)CCOC(F)F)c2c1 [Compound I-71]    7.8
CN(C)CCc1c[nH]c2ccc(OCCOC(F)F)cc12 [Compound I-128]    20.8

Q: Bench note: what half-life at 2 μM did COc1ccc2[nH]cc(CCN3CC[C@@H](OC)C3)c2c1 [(R) I-66] show?
Ans: 98.5

---

# Assay text: Rat liver microsomes stability
# Type: in vitro ADME
# Particulars: rat liver microsomes
Assay readout: Predicted hepatic CL (mL/min/kg)
Record the value in mL/min/kg, omitting the unit from your answer.

Guide cases for Predicted hepatic CL, answers given:
COc1ccc2[nH]cc(CCN(C)C)c2c1 [Compound 5-MeO-DMT]    49.02
CN(C)CCc1c[nH]c2ccc(OCCOC(F)F)cc12 [Compound I-128]    47.38
COc1ccc2[nH]cc(CCN3CC[C@@H](OC)C3)c2c1 [(R) I-66]    39.53
COc1ccc2[nH]cc(CCN3CC[C@@H](OC(F)F)C3)c2c1 [(R) I-67]    44.73

Q: Look at this compound and give its reported Predicted hepatic CL. COc1ccc2[nH]cc(CCN(C)CCOC(F)F)c2c1 [Compound I-71]
Ans: 45.41

---

# Subject of test: human 5-HT2A receptor (Homo sapiens)
# Sequence (P28223 whole entry): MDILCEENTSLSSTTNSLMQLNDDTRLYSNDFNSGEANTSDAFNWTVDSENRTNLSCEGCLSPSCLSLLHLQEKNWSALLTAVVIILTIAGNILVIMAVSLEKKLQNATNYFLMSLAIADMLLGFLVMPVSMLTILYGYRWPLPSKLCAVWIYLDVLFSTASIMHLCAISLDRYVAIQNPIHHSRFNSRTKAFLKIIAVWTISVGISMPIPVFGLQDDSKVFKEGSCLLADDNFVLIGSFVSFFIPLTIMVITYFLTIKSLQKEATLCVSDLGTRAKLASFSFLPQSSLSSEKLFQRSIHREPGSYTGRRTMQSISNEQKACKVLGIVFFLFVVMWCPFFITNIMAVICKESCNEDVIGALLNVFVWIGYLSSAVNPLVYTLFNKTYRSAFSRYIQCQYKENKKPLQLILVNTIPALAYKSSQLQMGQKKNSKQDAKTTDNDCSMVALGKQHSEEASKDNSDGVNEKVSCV
# Assay text: Human 5-HT2A radioligand binding assay ([3H]-ketanserin)
# Parameters: expressed in transfected cells; host or cells: HTR2A&Gα15-HEK293 (tetracycline induction)
# Particulars: [3H]-ketanserin displacement (Table 43); read-out: h5-HT2A, IC50
# Protocol: The objective of this study was to evaluate the binding properties of exemplary compounds of Formula (I) on 5-hydroxytryptamine receptor 2A (5-HT2A). 1. The assay buffer was prepared following Table 13 below. Adjust pH to 7.4 followed by […] sterile filtration 2. […] 10. The plate was read by using a Microbeta^2 microplate counter. […] 2. The IC50 was determined by fitting percentage of inhibition as a function of compound concentrations with Hill equation using XLfit. […]
# maps each entry to its IC50

Q: Hi! What's the reported IC50 for `CN(C)CCc1c[nH]c2ccccc12` on human 5-HT2A receptor (Homo sapiens)?
Ans: 954 nM

Q: Request body: readout IC50, system human 5-HT2A receptor (Homo sapiens), query `CN(CCOC(F)F)CCc1c[nH]c2ccccc12` . Return the value.
Ans: 5680 nM

Q: Entry `COc1ccc2[nH]cc(CCN(C)CCOC(F)F)c2c1` , system human 5-HT2A receptor (Homo sapiens): what IC50 was measured?
Ans: 2300 nM

---

# Assay text: Pharmacokinetic studies in rat (i.v.)
# Format: in vivo
# Particulars: male, Sprague-Dawley, rat, plasma, iv, 1.2 mg/kg, I-19 1.2 mg/kg i.v., rat plasma, 0.25 h, Mean ± SD; read-out: Plasma concentration
Assay readout: concentration at 0.25 h (ng/mL)
Your answer is read as ng/mL, so omit the unit and give the number.

Q: Query: concentration at 0.25 h; subject: `CSc1ccc2[nH]cc(CCN(C)C(C)C)c2c1`
Ans: 56

---

# Assay text: Pharmacokinetic studies in rat (i.v.)
# Assay type: in vivo
# Particulars: male, Sprague-Dawley, rat, plasma, iv, 1.2 mg/kg, I-19 1.2 mg/kg i.v., rat plasma, individual rats R07-R09; read-out: AUC0-tlast
Assay readout: AUC(0-t) (ng·h/mL)
Give just the numeric value; ng·h/mL need not be written.

Q: // returns reported AUC(0-t) for input `CSc1ccc2[nH]cc(CCN(C)C(C)C)c2c1`
Ans: 66.9

---

# Remaining Percentage (%) listing for each entry below
# Assay text: Human liver microsomes stability
# Type: in vitro ADME
# Particulars: human liver microsomes, With Cofactors, 60 min
Answer with a number only, understood to be in %.

// below: answered compounds
COc1ccc2[nH]cc(CCN3CC[C@@H](OC)C3)c2c1 [(R) I-66]    87.59
COc1ccc2[nH]cc(CCN(C)C)c2c1 [Compound 5-MeO-DMT]    3.25
CN(CCOC(F)F)CCc1c[nH]c2ccccc12 [Compound I-130]    0.75

Q: Name the reported Remaining Percentage (%) value associated with the compound COc1ccc2[nH]cc(CCN3CC[C@@H](OC(F)F)C3)c2c1 [(R) I-67]
Ans: 24.23

Q: Request the reported Remaining Percentage (%) associated with O=C(O)Cc1ccccc1Nc1c(Cl)cccc1Cl [Diclofenac]
Ans: 1.77

Q: State the recorded Remaining Percentage (%) for this entry: COc1ccc2[nH]cc(CCN(C)CCOC(F)F)c2c1 [Compound I-71]
Ans: 4.78

Q: Suppose we examine the compound CN(C)CCc1c[nH]c2ccc(OCCOC(F)F)cc12 [Compound I-128] ; what Remaining Percentage (%) value has been reported?
Ans: 16.15

Q: Item under review: COc1ccc2[nH]cc(CCN3CC[C@H](OC(F)F)C3)c2c1 [(S) I-67] . Reported Remaining Percentage (%)?
Ans: 41.10
